Origin of measurements: ChEMBL document CHEMBL1132941

System: K562
Experiment: Tested for cytotoxicity in human K562 cells
Assay type: functional
Conditions: read-out: ID50 (the source's name)
# key: entry, value: IC50
Report as a plain number; the unit µM is understood.

1. CCCCOC(=O)CNC(=O)C(CSc1ccc([N+](=O)[O-])cc1[N+](=O)[O-])NC(=O)CCC(NC(=O)OCc1ccccc1)C(=O)OCCCC (stereo not given); 21.8

Pending molecule:
Reported IC50, molecule COC(=O)CNC(=O)C(CSc1ccc([N+](=O)[O-])cc1[N+](=O)[O-])NC(=O)CCC(NC(=O)OCc1ccccc1)C(=O)OC (stereo not given) : ____
23.4
